System: LS 174T
Test: Sensitivity of cell lines to Cisplatin and Ti compounds (LS 174T)
Type: cell-based
Settings: LS 174T
metric: IC50 (nM)
The reply should contain only the number, in nM.

Ask: Can you look up IC50 on LS 174T for N.N.[Cl][Pt][Cl] [Cisplatin, cisplatin, reference compound] ?
Reply: 500

====

System: LoVo
Assay: Sensitivity of cell lines to Cisplatin and Ti compounds (LoVo)
Assay type: cell-based
Settings: LoVo
metric: pIC50
pIC50 is a log-scale quantity: -log10 of the concentration expressed in molar.

Ask: What measured pIC50 goes with N.N.[Cl][Pt][Cl] [Cisplatin, cisplatin, reference compound] ?
Reply: 6.43
